# protease stability score values compiled below
- test: protease stability score; higher = more stable; yeast display proteolysis, trypsin and chymotrypsin;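 note: relative to predicted unfolded state with 0 unfolded-like and 1 meaning tenfold more protease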
Response field accepts a number only; no unit should be typed.

As a guide, the following entries are already answered.
>  <monomer sequence>
DETFKEQEKLIERLERVERTGDWKEWERLADPNVRMDIDGVEIIGMEMVTEFILREMRHLGVTRIRIEIKEIRVIGDKIRIDGQIQQGNKETRFILIVSKIDGRWRLEESYVH

>  <protease stability score>
1.06

$$$$
>  <monomer sequence>
DDEEKEVKILTEIWWKSVRTGDEEFWDRLADPHTRLEILINGRTHEFHGMDEYNRILHHLRIEDRRTRSINNIDGKAQIDGFLVFRINGRSFETKVEVNISVVNGKVKHHKIIIE

>  <protease stability score>
1.3

$$$$
>  <monomer sequence>
NEMHEHAREFLERWKEWMHTGDEETMSKLADPHVRNEYNGVIRVGMEALEKVIRELRVRRTHDHHEHIEFQGDKLHIHVDQESDIEINGVRHRVRIHFDIISVKINGKWTLKSIRLTFH

>  <protease stability score>
1.41

$$$$
>  <monomer sequence>
DEDKEDTDKMIEILIRVARTGDEDSLLHMLDPNVRIVVNGREEHGRDVAHRFLKEIRIHDMEVKRVEIIGNKVKIDGRVDGDFNGVRHKTETEIITEKINGKWVIRSIIFR

>  <protease stability score>
2.1

$$$$
>  <monomer sequence>
DEEDRELERIYQELFEAWLTGNEDDLKKLADPNVRVDINGKDKVGREQEIEDLRRVKNMKVKLEDSDIIGDWITVDVVINFNGREIRMELEWRVINGKVKRVIVRYR

>  <protease stability score>
1.2

$$$$

Report protease stability score for SEDEDFMQKALKHDWELWETGDEEKIQKQADPHVRMDFDGVEYHGMELFSELLDRYLRKVKGLQIRLRHVHVKIINGQAIMDIDGTVNINGREIRLHIKIFNEKINGKWIHSSIRFEFR
1.21

Give the reported value of protease stability score for this record: DDKHEINRELTRLFFETWLTGDEDWFQKMLDPHVRVEVGDKRSHGREEAARMLREHFESLGIKHLEYKSIELQGDKTIIDGRLDVDGQTRNSKIKVLIIDGRLTHLHIKLE
1.01

Supply reported protease stability score belonging to this sequence: SEEHEKLHHLMELMLNAITTGDWEIIEHLADPNVRIDQGEWHDHGREKLIHIHELVRERMGIKHVEVRDSRMFHINGVVVIILRLDLNVNGKHRFEILRLQFRKVDGQWVMHSLDIELR
1.74

Let me know recorded protease stability score for HDHDKHLDRLEELMLRWWKTGDWDKILKYADPHTRSDVNGKEYHGRESMVRAFEHVLKMLGIDVVYDQSHHLQGEKAKFHQESRVGDKRVEVIIIITIVDGRVTEFEVEVHHN , thanks.
0.722

Name the recorded protease stability score of the item DEKEKEFKEVWKRILEILLTGDEEELTRMADPHARLDVNGVERHGREEMSKYIRHWHEKVKNARFWIHSIHVVGEKVVIDTEIQIGDKRIRYIVHFIVVDGRIKEIHVHEEII in your answer.
2.12

Tell me its protease stability score given SELDRDVEHVLKELAKAMRTGDEEMLHDMIDPNARMIVDGKNLHGREQIWKFFTELRVDSRRYEVKHSEIQGNKLEIDGRTRIIIIVNGREIDRETHTEIILLKINGKWLMHSVRIE as the entry.
1.07

* * *

- test: protease stability score; higher = more stable; yeast display proteolysis, trypsin and chymotrypsin;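 note: relative to predicted unfolded state with 0 unfolded-like and 1 meaning tenfold more protease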
readout kind: protease stability score
Answer with a number only.

Some solved entries appear below for comparison.
>  <monomer sequence>
DLYKHWTDVLLHLFLHVSRTGDEEEVVRLMDPNTLIIINGQEIHGREEIKRTFREMRVDDERLKDMDKIGNKVRVDGEVRITVDGQERTSRAHMVVLKVDGRWTIHSLRIE

>  <readout kind>
protease stability score

>  <quantitative readout>
1.77

$$$$
>  <monomer sequence>
DEDSEMVWRMLEDWLHNFLTGNEELLEHLMDPNARFEQGDKEIHGREKIAKFLRKELEDLGVKIEFRDTSIKSINGRAHNDGTNIIRVNGREIRRDTRIDLTVIDGRIKEIRIEIN

>  <readout kind>
protease stability score

>  <quantitative readout>
1.28

$$$$
>  <monomer sequence>
DRLHEMAREFSEEWSRAVKTGDEQLYSKLVDPNARFSIGEFDFHGRDEVSRIMKHWRIEDVHLSSVSVQGEKVEIRGHLHGDFDGRRQDVEVIIIVLKVNGRWFLRDLEFR

>  <readout kind>
protease stability score

>  <quantitative readout>
1.31

$$$$
>  <monomer sequence>
DELDEFREYWIRYVEEVFRTGDFEKHLSLMDPNARVLVDGKELHGREFLEVHMRRIKNATVRDVHHHDMEIQGDKVTLDVDVHVNVNGRDVDKHVLIISEKVNGRWISRSLEVR

>  <readout kind>
protease stability score

>  <quantitative readout>
0.628

$$$$
>  <monomer sequence>
DKKEKDAKEAFDWLVKHVRTGDETMLHELMDPDVKLEIGDKHIVGRENVVHVFSRLIERADHMEFILTDMKVYDGRVESDTILVLHIDGVEIRRKTKITVIKINGRWLLHTVHIE

>  <readout kind>
protease stability score

>  <quantitative readout>
1.31

$$$$
>  <monomer sequence>
DEEHEELKKMVQHSLQLLMTGDEETIYHLLDPHAKVIINGVEYHGMSLSAKIMIKMARDLGVERFEVHLEHSRWFDGRVDVHISRRVNGQTEEVHINSKKINGRWHLKSIIFN

>  <readout kind>
protease stability score

>  <quantitative readout>
1.06

$$$$

Assign protease stability score to the following record: DEDEEATRYALELMKKMHETGDEDSIKHLMDPHTKMDVNGVIFHGREAFHVWLNRFDVIRRFNIKHMKSVGDFLHIEGELDSEVNGKRIVTEVRIVSFKFNGRWHLSSTKIL
1.53

Name the recorded protease stability score of the sequence listed here: DERDELVEIVFRLYLRLLTTGDEQEWHHLADPDTRLHIGDKDFHGRENVNKHRRDNLERVKGIKLRDVKITQVHLIDGVLHIDIRLDVEYDGRRTELKVRVISEKVDGKWFIKSIIIE
1.44

Quick one: give measured protease stability score for DEEEKLDREIEKTMKETIETGDEHLLSELIDPHARLVFNGKDFHGMEEATRFWYELVTRFKNLTFVPKDVKVFDGRLIMHGINLVNGVERRLTIVVEKINGRWVIRSIHIK
1

Kindly indicate its recorded protease stability score. Item: SEREEENRRAFHKFWEIIKTGDEELQDTFADPHVRLDVDGKEFHGREWIVRMLTELLRRFGVDHITFKHVEVQGDKLIIHHRDEVGDKKFELHVIVDKINGRWYERHVSMSER
1.65

Read the entry DETDKLAFELMEELLENFHTGNEERFHQLFDPDVRIIVNGRTLHGRRHWHKILEDIIREWRIKHIHMERLISIGDKARLDMRWNVRVNGREVHTESHVNLTVVDGRITLLEIQHH and write its reported protease stability score.
1.52

# return recorded protease stability score for input SEEEDISRNLLEIFLRVLLTGDEHAISRLLDPRVLVIFHFENRDIILHGRSNVLKWLHDRLREIRINDWSVKSVEVQGNKAHQDTRIDIIIGDKKIDKEVEVNITVVDGKVKHLEIRVH
2.21

* * *

- test: protease stability score; higher = more stable; yeast display proteolysis, trypsin and chymotrypsin;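 note: relative to predicted unfolded state with 0 unfolded-like and 1 meaning tenfold more protease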
readout kind: protease stability score

Here's what some known entries look like.
>  <monomer sequence>
DEDKDVTKRLFELLRQADETGDEHTMTRLLDPHAQLVVNGRRVHGMEFVWELLLRLRHRYDHSHWRLHDARTQGEYMHLDVRLHLNIDGKRVNIEMHLIILKIDGVWFVHSVEIH

>  <protease stability score>
0.45

$$$$
>  <monomer sequence>
DEDDKEAEKALRDMVHSWVTGDEQKNQELADPHVRVIIGEFNFVGRDDLDKWLREIRIHNIEIKDIDVFDGKVELKGTLTIRIGDKEVRHEVDFYMVKINGRWHLHRIQVH

>  <protease stability score>
2.08

$$$$
>  <monomer sequence>
DEDLERARHAIEELIENWRTGNFREIERLMDPNVRIIIGDKTLHGRESMHRFVEEARLEHFELRHVSIVNGRVHVHGTEDWRIGDKRETREVRIVIHKVDGRWNFEFKIIH

>  <protease stability score>
0.983

$$$$
>  <monomer sequence>
RHEERHLEEKLQRLLHAWLTGDEDELTELADPDVRLKINGQHYIGWEQFFKALTDLRREMRIHDLKIKRKEIDGDKLVLDGETDGEINGVKRLHKTEIIIIMIDGRLRRVEFRQH

>  <protease stability score>
0.618

$$$$

Item DETDEWAHKLMELILEYWLTGDWDLFNELADPNVKLIINGRESVGREEVREMLERTLKEIRLRRIEIDHVRIYDGRAQTHSRTDGDVNGKVTETHMHLHVLLINGRIRHVEIRLH : provide protease stability score
2.02

Please supply the value of reported protease stability score for the item DEWDEKLHHFFELMSHAMETGDEHMQDELADPHVRLIINGVDYIGRERFREMVKRVDYFSVRDIHFKDKEIQGDFIHFRGTLNGEEIINGVRIEKEVDFKLLILKVDGRWFLESEERR
0.668

Hello, the source for this data is the NTF2 design screens of Basanta et al. (2020), in case you need it.
